TEST: Alkylating activity was determined
Format: ADME
Label scheme for Alkylating activity: lower than 400 is Condition not met, 400 and above is Condition met.

Query :: Exam item: decide whether the reported Alkylating activity for O=NN(CCCl)C(=O)NC1CCCCC1 is at least 400.
Result :: Condition not met

Query :: Exam item: decide whether the reported Alkylating activity for O=NN(CCCl)C(=O)N[C@H]1C(O)O[C@H](CO)[C@@H](O)[C@@H]1O (stereo not given in full) is at least 400.
Result :: Condition met

Query :: Exam item: decide whether the reported Alkylating activity for O=NN(CCCl)C(=O)NC1CCC(=O)NC1=O (stereo not given) is at least 400.
Result :: Condition not met

Query :: Exam item: decide whether the reported Alkylating activity for NC(=O)N(CCCl)N=O is at least 400.
Result :: Condition met

Query :: Exam item: decide whether the reported Alkylating activity for O=NN(CCCl)C(=O)NCCCl is at least 400.
Result :: Condition not met
